# TARGET_ENTITY: UBE2I; also: test concentration or dose not given here
# PROTOCOL_DESCRIPTION: reporter assay of Huesken 2005
# CONDITION: siRNA
Oligonucleotides are written 5' to 3', each unit as a sugar letter and its base; * is a phosphorothioate linkage, no mark a phosphodiester; rarer units and linkages stand in square brackets, end groups in braces. Plain capitals give the bases only. d = 2'-deoxy (DNA); r = 2'-OH (RNA)
Kindly supply the reported normalised inhibition (eCFP-eYFP dual reporter) values for the records listed here.
Give the value in % but do not write % after it.

// query normalised inhibition (eCFP-eYFP dual reporter) value for entry sense rGrArGrGrCrUrUrGrUrUrUrArArArCrUrArCrGdTdT / antisense rCrGrUrArGrUrUrUrArArArCrArArGrCrCrUrCdCdT
73.2

Another substance to check: sense rCrArCrArArUrCrArArArCrArGrArUrCrCrUrAdTdT / antisense rUrArGrGrArUrCrUrGrUrUrUrGrArUrUrGrUrGdAdT
87.4

Another substance to check: sense rUrCrCrGrUrGrGrGrArArGrGrArGrGrCrUrUrGdTdT / antisense rCrArArGrCrCrUrCrCrUrUrCrCrCrArCrGrGrAdGdT
52.4

Another substance to check: sense rArArCrCrArArArUrArUrCrCrArArGrArCrCrCdTdT / antisense rGrGrGrUrCrUrUrGrGrArUrArUrUrUrGrGrUrUdCdA
48.9

Another substance to check: sense rCrCrUrCrArUrGrArArCrUrGrGrGrArGrUrGrCdTdT / antisense rGrCrArCrUrCrCrCrArGrUrUrCrArUrGrArGrGdTdT
72.2

Another substance to check: sense rArGrArUrGrArUrUrArUrCrCrArUrCrUrUrCrGdTdT / antisense rCrGrArArGrArUrGrGrArUrArArUrCrArUrCrUdTdT
52.7

Another substance to check: sense rUrArUrUrUrCrArCrCrCrGrArArUrGrUrGrUrAdTdT / antisense rUrArCrArCrArUrUrCrGrGrGrUrGrArArArUrAdAdT
78.9

Another substance to check: sense rGrCrCrUrArCrArCrGrArUrUrUrArCrUrGrCrCdTdT / antisense rGrGrCrArGrUrArArArUrCrGrUrGrUrArGrGrCdCdT
67.8

Another substance to check: sense rCrArGrArUrCrCrUrArUrUrArGrGrArArUrArCdTdT / antisense rGrUrArUrUrCrCrUrArArUrArGrGrArUrCrUrGdTdT
74.4

Another substance to check: sense rArCrCrUrCrArUrGrArArCrUrGrGrGrArGrUrGdTdT / antisense rCrArCrUrCrCrCrArGrUrUrCrArUrGrArGrGrUdTdC
58.8

Another substance to check: sense rArGrGrGrArCrUrCrCrGrUrGrGrGrArArGrGrAdTdT / antisense rUrCrCrUrUrCrCrCrArCrGrGrArGrUrCrCrCrUdTdT
72.1

Another substance to check: sense rCrArGrUrGrUrGrCrCrUrGrUrCrCrArUrCrUrUdTdT / antisense rArArGrArUrGrGrArCrArGrGrCrArCrArCrUrGdTdC
80.1
